// data source = PubChem BioAssay (NCATS)

- protocol: qHTS drug screen for cell cycle checkpoint inhibitors in PARPi-resistant BRCA-mutant ovarian cancer cell lines. (AID 1963452)
- measurement_parameters: PEO1/OlaR viability, CellTiter-Glo luminescence, 96 h; measured here: PEO4 Z-AUC; stronger effect = lower value
Z-AUC strictly less than -0.4 = condition met. Otherwise condition not met.

Request: Please indicate whether the reported Z-AUC of `Cn1nccc1Nc1nccc(-c2cc3c(s2)C(C)(C)N(CCN2CCOCC2)C3=O)n1` is strictly below -0.4.
Response: condition met

====

Below, each entry is listed with its recorded Potency.
- assayed_target: Glucocorticoid receptor (Homo sapiens) (UniProt P04150)
- Sequence (P04150 whole entry, looked up): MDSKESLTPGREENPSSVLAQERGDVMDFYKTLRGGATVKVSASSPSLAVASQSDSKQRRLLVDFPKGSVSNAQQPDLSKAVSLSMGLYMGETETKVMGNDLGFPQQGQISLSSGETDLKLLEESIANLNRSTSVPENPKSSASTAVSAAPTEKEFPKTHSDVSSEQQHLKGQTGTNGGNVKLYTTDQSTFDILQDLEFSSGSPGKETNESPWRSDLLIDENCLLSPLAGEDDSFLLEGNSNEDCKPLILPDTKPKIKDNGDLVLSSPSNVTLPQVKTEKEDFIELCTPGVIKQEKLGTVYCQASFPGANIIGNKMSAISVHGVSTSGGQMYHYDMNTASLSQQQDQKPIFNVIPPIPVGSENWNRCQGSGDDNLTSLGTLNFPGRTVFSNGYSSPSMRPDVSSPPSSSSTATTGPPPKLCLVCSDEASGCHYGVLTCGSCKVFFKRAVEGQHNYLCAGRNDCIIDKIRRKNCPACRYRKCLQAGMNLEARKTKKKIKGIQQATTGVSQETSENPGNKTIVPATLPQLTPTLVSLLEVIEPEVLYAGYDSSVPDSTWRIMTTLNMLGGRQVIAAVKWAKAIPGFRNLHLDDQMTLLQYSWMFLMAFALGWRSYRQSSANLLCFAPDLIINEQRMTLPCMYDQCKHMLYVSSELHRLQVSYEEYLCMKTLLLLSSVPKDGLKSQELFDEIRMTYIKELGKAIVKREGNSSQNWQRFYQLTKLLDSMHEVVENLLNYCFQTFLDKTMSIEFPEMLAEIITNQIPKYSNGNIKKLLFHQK
- protocol: GR-GFP Redistribution (AID 450); also: potency is read from the fitted curve at half-maximal effect
- measurement_parameters: U2OS GR-GFP nuclear translocation, laser cytometry, 2 h
Active and inactive are the calls of the source.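 Rule for the calls: active = compounds whose dose series gives a full or clear partial fitted curve of increased nuclear translocation; inconclusive = weak partial curve or effect only at the top dose; inactive = no dose-dependent translocation response.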

structure_smiles=Cn1c(=O)c(-c2cc(F)cc(F)c2)nc2cnc(Oc3ccccc3)nc21 assayed_target="Glucocorticoid receptor (Homo sapiens) (UniProt P04150)" endpoint_value="> 9.22 µM (inactive)"
structure_smiles=COCCn1c(=O)c(-c2ccccc2)nc2cnc(N3CCNCC3)nc21 assayed_target="Glucocorticoid receptor (Homo sapiens) (UniProt P04150)" endpoint_value="> 9.22 µM (inactive)"
structure_smiles=COc1ccccc1CNc1ncncc1-c1cccnc1 assayed_target="Glucocorticoid receptor (Homo sapiens) (UniProt P04150)" endpoint_value="> 46 µM (inactive)"
structure_smiles=CC(=O)NCCNc1nc(-c2ccccc2C(F)(F)F)nc2ccccc12 assayed_target="Glucocorticoid receptor (Homo sapiens) (UniProt P04150)" endpoint_value="> 46 µM (inactive)"
structure_smiles=Cc1noc(C)c1-c1cc(NC2CC2)ncn1 assayed_target="Glucocorticoid receptor (Homo sapiens) (UniProt P04150)" endpoint_value="> 46 µM (inactive)"
structure_smiles=CN(C)c1ncc2nc(-c3cc(F)cc(F)c3)c(=O)n(C3CC3)c2n1 assayed_target="Glucocorticoid receptor (Homo sapiens) (UniProt P04150)" endpoint_value="> 9.22 µM (inactive)"
structure_smiles=COCCNc1cc(-c2ccccc2C(F)(F)F)ncn1 assayed_target="Glucocorticoid receptor (Homo sapiens) (UniProt P04150)" endpoint_value="> 46 µM (inactive)"
structure_smiles=CN(C)c1ccnc(-c2ccccc2C(F)(F)F)n1 assayed_target="Glucocorticoid receptor (Homo sapiens) (UniProt P04150)" endpoint_value="> 46 µM (inactive)"
structure_smiles=COc1cccc(Nc2ncc3nc(-c4ccc(F)cc4)c(=O)n(C)c3n2)c1 assayed_target="Glucocorticoid receptor (Homo sapiens) (UniProt P04150)" endpoint_value="> 9.22 µM (inactive)"
structure_smiles=CC(C)=CCc1c2c(c3occ(-c4ccc(O)c(O)c4)c(=O)c3c1O)C=CC(C)(C)O2 assayed_target="Glucocorticoid receptor (Homo sapiens) (UniProt P04150)" endpoint_value="> 46 µM (inactive)"

Request: # lookup: Potency of `COc1ccc(CNc2ncnc3ccc(-c4cccc(C#N)c4)cc23)c(OC)c1`
Response: > 46 µM (inactive)

Request: Entry `Cn1c(=O)c(-c2ccc(Cl)cc2)nc2cnc(Oc3cccc(Cl)c3)nc21` has what Potency?
Response: > 9.22 µM (inactive)

Request: So what's the measured Potency for this one? `O=c1c(-c2ccc(F)cc2)nc2cnc(N3CCNCC3)nc2n1Cc1ccc(F)cc1`
Response: > 9.22 µM (inactive)

====

- assayed_target: Phospholipid hydroperoxide glutathione peroxidase GPX4 (Homo sapiens)
- protocol: Primary qHTS Assay for Inhibitors of Recombinant Selenoprotein Glutathione Peroxidase 4 (GPX4) (AID 1845192); also: nearly all actives have a fitted effect of over 65% in size
- measurement_parameters: recombinant GPX4, GR-coupled NADPH fluorescence, 15 min; series mostly up to 50 µM
- Experimental: Assay Provider: Elias S.J. Arner MD PhD. Department of Medical Biochemistry and Biophysics Karolinska Institutet, Solna, Stockholm, Sweden […] 6; Detection; Fluorescence; ViewLux microplate reader, excitation 340 nm and emission 450 nm. […] 8; Detection; Fluorescence; ViewLux microplate reader, excitation 340 nm and emission 450 nm. […] 6. Initial fluorescence readout (t=0) at 340/450 nm was measured using a ViewLux multimodal detector (PerkinElmer, Waltham, MA). […]
Records with an inconclusive call do not appear. Calls of active or inactive are those of the source. The call rests on the fitted dose curve; in most records, active means well fitted inhibition curve with a large enough effect; inconclusive means small, poorly fitted or top-dose-only effect; inactive means flat fitted curve, though single readings scatter.
// one of active, inactive, no free text

These solved cases illustrate the format of a correct answer.
molecule=COC1=C2C[C@H](C)C[C@H](OC)[C@H](O)[C@@H](C)/C=C(/C)[C@H](OC(N)=O)[C@@H](OC)/C=C\C=C(\C)C(=O)NC(=CC1=O)C2=O assigned_label=inactive
molecule=COc1ccc(CNC(=O)c2cc(-c3cncc(Cl)c3)cnc2-c2ccccn2)nc1OC assigned_label=inactive
molecule="Nc1nc2c(c(=O)[nH]1)N1CN(c3ccc(C(=O)N[C@@H](CCC(=O)O)C(=O)O)cc3)CC1CN2 (stereo partly specified)" assigned_label=inactive
molecule=COC(=O)/C=C/C(=O)OC assigned_label=inactive
molecule=CCOc1ccc(-n2c([C@@H](C)N(Cc3cccnc3)C(=O)Cc3ccc(F)c(C(F)(F)F)c3)nc3ncccc3c2=O)cc1 assigned_label=inactive
molecule=COc1ccnc2[nH]cc(C(=O)C(=O)N3CCN(C(=O)c4ccccc4)C[C@H]3C)c12 assigned_label=inactive
molecule=O=c1oc2c(C3OCCCO3)c(O)ccc2c2c1CNCC2 assigned_label=active
molecule=COc1ccccc1C(=O)Nc1cc2c(cc1N1CCCCC1)n(C)c(=O)n2C assigned_label=inactive
molecule=O=C(C[C@@H]1C/C=C\CCC(=O)O[C@H](c2ccccc2)CNC1=O)NCc1ccc(Cl)cc1 assigned_label=inactive
molecule=O=C(/C=C/c1ccc2ccc(C(F)(F)F)cc2n1)c1ccncc1 assigned_label=inactive

Request: GET /call?item= `CN[C@@H](C)C(=O)N[C@H](C(=O)N1CCC[C@H]1C(=O)Nc1snnc1-c1ccccc1)C1CCCCC1` returns the recorded outcome of this test.
Response: inactive

Request: Kindly provide the recorded test outcome for the following molecule: `CONC(=O)Nc1ccc(-c2sc3c(c2CN(C)C)c(=O)n(-c2ccc(OC)nn2)c(=O)n3Cc2c(F)cccc2F)cc1`
Response: inactive

Request: Hi team, can someone confirm the assay call for `Cc1cccc(/C=N/Nc2cc(N3CCOCC3)nc(OCCc3ccccn3)n2)c1` ?
Response: inactive

Request: Look up the recorded call for O=C(Nc1nccs1)C(c1cc(F)ccc1O)N1Cc2ccccc2C1=O (stereo unspecified) in this test.
Response: inactive

Request: Returns: the outcome recorded for `O=C(Nc1cnccc1Cl)N1CCN(Cc2ccc3c(c2)OC(F)(F)O3)CC1` in this assay.
Response: inactive

Request: What call does the record list for `Fc1cccc(-n2cnc3c(NCc4nc5c(F)c(F)ccc5[nH]4)nc(N4CCOCC4)nc32)c1` ?
Response: inactive

Request: So what was the verdict on `C=CC(=O)Nc1cccc(Oc2nc(Nc3ccc(N4CCN(C)CC4)c(F)c3)nc3[nH]ccc23)c1` in this test?
Response: inactive

Request: Short answer needed: outcome of this test for `COc1cccc2c1C(=O)c1c(O)c3c(c(O)c1C2=O)C[C@@](O)(/C(CO)=N/NC(=O)CCCCCN1C(=O)C=CC1=O)C[C@@H]3O[C@H]1C[C@H](N)[C@H](O)[C@H](C)O1` ?
Response: inactive

Request: Each molecule tested received a call. Report the one for `CCN(C(=O)c1ccccc1OC)c1cc2c(cc1N1CCNC[C@H]1C)n(C)c(=O)n2C` .
Response: inactive

Request: Would you mind telling me which call this test gave `C[C@@H]1[C@H](O)[C@@H](C)/C=C/C=C/C=C/C=C/C=C/C=C/C=C/[C@H](O[C@@H]2O[C@H](C)[C@@H](O)[C@H](N)[C@@H]2O)C[C@@H]2O[C@](O)(C[C@@H](O)C[C@@H](O)[C@H](O)CC[C@@H](O)C[C@@H](O)CC(=O)O[C@H]1C)C[C@H](O)[C@H]2C(=O)O` ?
Response: inactive

Request: Identify the outcome logged in this assay for the molecule shown: `Cc1cc(Nc2cc(N)ncn2)c(=O)n2c1C(=O)NC21CCCCC1`
Response: inactive

Request: Hi team, can someone confirm the assay call for `O=C([O-])C[O-].[Pt+2]` ?
Response: inactive

Request: What was the test verdict on `NC(=O)/C(=C/n1cnc(-c2cc(C(F)(F)F)cc(C(F)(F)F)c2)n1)c1cncnc1` ?
Response: inactive

Request: Name the outcome recorded for `CN1C(N)=N[C@](C)(c2cc(NC(=O)c3ccc(F)cn3)ccc2F)CS1(=O)=O` in the assay.
Response: inactive

Request: For this molecule, state the assay outcome: `Cn1cc(/C=C2\C(=O)Nc3cccnc32)c2ccccc21`
Response: inactive

Request: Outcome? `C=CCN(/C=C1\C(=O)O[C@@H](COC)[C@]2(C)C1=C(O)C(=O)C1=C2[C@@H](OC(C)=O)C[C@]2(C)C(=O)CC[C@H]12)CC=C`
Response: inactive

Request: Could you please tell me the result logged for `C[C@H](CCC(=O)O)[C@H]1CC[C@H]2[C@@H]3[C@@H](O)C[C@@H]4C[C@H](O)CC[C@]4(C)[C@H]3CC[C@]12C` in this assay?
Response: inactive

Request: Please let me know the test result on file for `CNc1nc(-c2ccc3c(N)n[nH]c3c2)cc(N2C[C@@H](C(=O)NC3CCCCC3)CC[C@H]2C)n1` .
Response: inactive

Request: Returns: the outcome recorded for `CC(C)(C)c1[nH]cnc1/C=c1\[nH]c(=O)/c(=C/c2ccccc2)[nH]c1=O` in this assay.
Response: inactive

Request: GET /call?item= `CCOCOC[C@H](C[C@H](C)C(=O)NO)NC(=O)c1ccc(Oc2ccccc2)cc1` returns the recorded outcome of this test.
Response: inactive

Request: What classification did `CC(C)(O)CS(=O)(=O)Nc1ccc2c(c1)CCN(C(=O)COc1cccnc1)C2` end up with in this test?
Response: inactive
